Taken from ChEMBL document CHEMBL5150044.

- Tested on: BaF3
- measurement protocol: cells
- condition notes: Mus musculus, BaF3, 72 h
- Description: Antiproliferative activity against mouse BaF3 cells expressing EGFR WT assessed as cell viability measured after 72 hrs hrs by CellTiter Glo assay
metric name: pIC50
Please report pIC50 as the negative decimal logarithm of the molar concentration, giving only the number.

{"compound": "C=CC(=O)Nc1cc(Nc2ncc(C(=O)OC(C)C)c(-c3cn(C)c4ccccc34)n2)c(OC)cc1N(C)CCN(C)C [MOBOCERTINIB]", "measured value": 8.08}

Prompt: Data request, read-out pIC50, for `COc1cc2ncnc(Nc3cc(Cl)c(F)cc3O)c2cc1O`
Completion: 6.69

---

- study system: Epidermal growth factor receptor (Homo sapiens, UniProt P00533, L858R/T790M)
- Sequence (P00533 25-1210 T790M/L858R limits assumed): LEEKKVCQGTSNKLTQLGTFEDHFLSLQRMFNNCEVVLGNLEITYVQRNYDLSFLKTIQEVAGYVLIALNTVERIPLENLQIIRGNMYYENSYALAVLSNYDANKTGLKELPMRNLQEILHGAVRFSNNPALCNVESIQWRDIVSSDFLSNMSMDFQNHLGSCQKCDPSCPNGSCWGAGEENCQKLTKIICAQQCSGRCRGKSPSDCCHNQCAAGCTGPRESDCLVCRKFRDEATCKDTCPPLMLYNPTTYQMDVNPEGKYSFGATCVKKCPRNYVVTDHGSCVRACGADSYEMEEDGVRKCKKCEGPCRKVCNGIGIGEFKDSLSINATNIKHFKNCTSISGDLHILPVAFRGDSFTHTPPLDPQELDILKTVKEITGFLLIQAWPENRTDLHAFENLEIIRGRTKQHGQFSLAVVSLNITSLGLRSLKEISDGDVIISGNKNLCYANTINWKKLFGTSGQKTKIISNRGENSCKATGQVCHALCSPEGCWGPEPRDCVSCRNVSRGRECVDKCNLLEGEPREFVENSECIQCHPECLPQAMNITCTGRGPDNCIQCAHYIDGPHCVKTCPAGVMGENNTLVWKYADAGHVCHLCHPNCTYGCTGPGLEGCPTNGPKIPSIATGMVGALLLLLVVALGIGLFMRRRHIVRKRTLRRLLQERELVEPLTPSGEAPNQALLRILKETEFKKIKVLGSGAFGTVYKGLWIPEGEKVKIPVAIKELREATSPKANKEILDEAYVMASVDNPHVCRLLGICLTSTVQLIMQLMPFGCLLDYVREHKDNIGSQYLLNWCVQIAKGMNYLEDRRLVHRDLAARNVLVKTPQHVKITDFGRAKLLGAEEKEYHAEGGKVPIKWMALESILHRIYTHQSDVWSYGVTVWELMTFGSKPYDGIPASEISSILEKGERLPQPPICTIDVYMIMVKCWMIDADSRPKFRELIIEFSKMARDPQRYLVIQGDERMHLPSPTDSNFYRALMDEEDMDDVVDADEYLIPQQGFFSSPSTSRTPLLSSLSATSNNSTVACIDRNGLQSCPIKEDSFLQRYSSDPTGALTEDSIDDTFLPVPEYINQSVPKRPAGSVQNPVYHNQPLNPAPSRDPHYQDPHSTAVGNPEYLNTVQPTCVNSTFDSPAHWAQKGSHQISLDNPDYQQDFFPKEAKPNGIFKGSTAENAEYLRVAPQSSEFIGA
metric name: pIC50
Please report pIC50 as the negative decimal logarithm of the molar concentration, giving only the number.

Prompt: Missing value: pIC50, Epidermal growth factor receptor (Homo sapiens, UniProt P00533, L858R/T790M), entry `COc1cc2ncnc3c2cc1OCCOCCOc1ccccc1N3` . Fill in?
Completion: 5.77

---

System: Epidermal growth factor receptor (Homo sapiens, UniProt P00533) | Read-out: IC50

{"smiles representation": "COc1cc2ncnc3c2cc1OCCOCCOc1ccc(Cl)cc1N3", "measured value": "> 100 µM"}
{"smiles representation": "COc1cc2ncnc3c2cc1OCCOCCOCCOc1cccc(Cl)c1N3", "measured value": "> 100 µM"}
{"smiles representation": "COc1cc2ncnc3c2cc1OCCCCCCOc1cc(Cl)ccc1N3", "measured value": "> 100 µM"}
{"smiles representation": "COc1cc2ncnc3c2cc1OCCOCCOCCOc1cc(F)c(Cl)cc1N3", "measured value": "> 100 µM"}

Kindly review the next compound as well.
Prompt: Data request, read-out IC50, for `COc1cc2ncnc3c2cc1OCCOCCOCCOc1ccccc1N3`
Completion: > 100 µM

---

- study system: Epidermal growth factor receptor (Homo sapiens, UniProt P00533, L858R)
- Sequence (P00533 25-1210 L858R limits assumed): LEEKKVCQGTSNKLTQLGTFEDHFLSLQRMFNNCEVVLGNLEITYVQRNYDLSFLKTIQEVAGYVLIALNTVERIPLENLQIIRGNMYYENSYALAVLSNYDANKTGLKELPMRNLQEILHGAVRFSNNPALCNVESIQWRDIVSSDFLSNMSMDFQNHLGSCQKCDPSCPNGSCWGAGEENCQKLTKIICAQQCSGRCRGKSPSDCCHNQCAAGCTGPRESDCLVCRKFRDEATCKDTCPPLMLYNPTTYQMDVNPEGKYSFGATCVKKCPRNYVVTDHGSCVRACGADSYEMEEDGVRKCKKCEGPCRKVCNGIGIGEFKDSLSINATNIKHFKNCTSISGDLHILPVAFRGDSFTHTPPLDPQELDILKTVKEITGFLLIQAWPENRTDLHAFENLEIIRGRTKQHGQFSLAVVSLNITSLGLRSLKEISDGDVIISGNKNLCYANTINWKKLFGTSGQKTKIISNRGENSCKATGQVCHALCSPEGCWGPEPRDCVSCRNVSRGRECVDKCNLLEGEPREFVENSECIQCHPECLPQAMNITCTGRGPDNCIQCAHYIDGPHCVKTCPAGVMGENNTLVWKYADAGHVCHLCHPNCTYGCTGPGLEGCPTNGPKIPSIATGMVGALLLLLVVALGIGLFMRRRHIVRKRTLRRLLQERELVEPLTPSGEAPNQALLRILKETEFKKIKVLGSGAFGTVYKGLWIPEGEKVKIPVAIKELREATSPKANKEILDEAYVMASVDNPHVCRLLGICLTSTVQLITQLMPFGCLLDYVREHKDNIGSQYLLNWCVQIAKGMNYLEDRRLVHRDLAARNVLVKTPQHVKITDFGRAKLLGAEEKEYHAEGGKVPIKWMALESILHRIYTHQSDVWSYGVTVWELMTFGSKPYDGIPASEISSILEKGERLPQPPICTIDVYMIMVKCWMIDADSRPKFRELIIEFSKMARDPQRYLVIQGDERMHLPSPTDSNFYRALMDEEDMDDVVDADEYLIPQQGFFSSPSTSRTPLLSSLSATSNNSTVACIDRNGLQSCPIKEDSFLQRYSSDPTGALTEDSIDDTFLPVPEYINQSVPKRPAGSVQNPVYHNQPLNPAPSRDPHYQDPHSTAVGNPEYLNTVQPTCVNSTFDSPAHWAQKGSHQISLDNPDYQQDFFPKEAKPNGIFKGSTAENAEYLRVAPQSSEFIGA
Each entry below lists one item and its recorded IC50 value.
Give the number; nM is assumed, so skip it.

Solved cases (2 shown):
{"smiles representation": "COc1cc2ncnc(Nc3cc(Cl)c(F)cc3O)c2cc1O", "study system": "Epidermal growth factor receptor (Homo sapiens, UniProt P00533, L858R)", "quantity unit": "nM", "IC50": 18.8}
{"smiles representation": "COc1cc2ncnc3c2cc1OCCOCCOCCOc1cc(Cl)ccc1N3", "study system": "Epidermal growth factor receptor (Homo sapiens, UniProt P00533, L858R)", "quantity unit": "nM", "IC50": 38.3}

Kindly review the next compound as well.
Prompt: Missing value: IC50, Epidermal growth factor receptor (Homo sapiens, UniProt P00533, L858R), entry `COc1cc2ncnc3c2cc1OCCOCCOCCOc1ccc(Cl)cc1N3` . Fill in?
Completion: 0.7

---

- measurement protocol: Solubility in neutral aqueous solutions after 24 hrs by HPLC analysis
- Format: physicochemical
metric name: solubility at 24 h
Phrase the answer as number then unit, nothing more needed.

Prompt: Data request, read-out solubility at 24 h, for `COc1cc2ncnc3c2cc1OCCOCCOc1cc(F)c(Cl)cc1N3`
Completion: 0.131 µg/mL

---

- study system: Epidermal growth factor receptor (Homo sapiens, UniProt P00533, EX19DEL)
- Sequence (P00533 whole entry, looked up, stated change not applied): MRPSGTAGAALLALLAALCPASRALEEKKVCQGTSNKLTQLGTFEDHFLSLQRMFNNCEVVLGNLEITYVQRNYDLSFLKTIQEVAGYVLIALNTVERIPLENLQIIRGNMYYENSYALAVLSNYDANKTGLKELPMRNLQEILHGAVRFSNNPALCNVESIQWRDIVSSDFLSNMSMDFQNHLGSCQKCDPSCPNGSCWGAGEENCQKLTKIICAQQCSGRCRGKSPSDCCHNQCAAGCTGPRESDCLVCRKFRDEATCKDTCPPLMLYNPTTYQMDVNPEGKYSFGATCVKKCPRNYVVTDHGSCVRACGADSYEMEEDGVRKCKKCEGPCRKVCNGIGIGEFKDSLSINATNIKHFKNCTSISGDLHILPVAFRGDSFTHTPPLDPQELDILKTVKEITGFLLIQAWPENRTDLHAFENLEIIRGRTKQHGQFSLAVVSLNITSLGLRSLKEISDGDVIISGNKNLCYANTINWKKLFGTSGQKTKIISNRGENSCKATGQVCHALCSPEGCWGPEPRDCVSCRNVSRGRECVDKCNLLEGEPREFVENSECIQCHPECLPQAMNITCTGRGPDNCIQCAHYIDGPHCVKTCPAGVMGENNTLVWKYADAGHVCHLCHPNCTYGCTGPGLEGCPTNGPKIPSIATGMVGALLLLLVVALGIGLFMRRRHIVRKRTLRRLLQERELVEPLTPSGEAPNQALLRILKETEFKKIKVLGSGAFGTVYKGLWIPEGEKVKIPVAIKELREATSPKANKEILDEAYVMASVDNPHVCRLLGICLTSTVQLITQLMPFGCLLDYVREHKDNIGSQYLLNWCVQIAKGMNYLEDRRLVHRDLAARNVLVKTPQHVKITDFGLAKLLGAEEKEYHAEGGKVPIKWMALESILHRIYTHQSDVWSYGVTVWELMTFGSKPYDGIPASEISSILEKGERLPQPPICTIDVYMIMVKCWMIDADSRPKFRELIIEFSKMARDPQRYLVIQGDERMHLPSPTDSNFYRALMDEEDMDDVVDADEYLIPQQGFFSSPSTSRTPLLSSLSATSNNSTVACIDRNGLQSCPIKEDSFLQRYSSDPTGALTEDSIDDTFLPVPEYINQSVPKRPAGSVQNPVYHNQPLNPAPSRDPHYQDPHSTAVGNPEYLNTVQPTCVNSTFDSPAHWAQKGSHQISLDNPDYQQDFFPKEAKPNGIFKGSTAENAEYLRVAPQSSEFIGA
Rule: IC50 below 500 nM gives Fulfilled, anything at or above gives Not fulfilled.

Answered cases to consult:
{"smiles representation": "COc1cc2ncnc3c2cc1OCCOCCOc1cccc(c1)N3", "class name": "Not fulfilled"}
{"smiles representation": "COc1cc2ncnc3c2cc1OCCCCCCOc1ccc(Cl)cc1N3", "class name": "Fulfilled"}
{"smiles representation": "COc1cc2ncnc3c2cc1OCCOCCOCCOc1cccc(Cl)c1N3", "class name": "Fulfilled"}
{"smiles representation": "COc1cc2ncnc3c2cc1OCCOCCOc1cc(Cl)cc(c1)N3", "class name": "Not fulfilled"}
{"smiles representation": "COc1cc2ncnc3c2cc1OCCOCCOc1ccccc1N3", "class name": "Fulfilled"}

Prompt: Given `COc1cc2ncnc3c2cc1OCCOCCOc1ccc(Cl)cc1N3` , is recorded IC50 strictly lower than 500 nM?
Completion: Fulfilled

Prompt: Given `COc1cc2ncnc3c2cc1OCCCCCCOc1cc(F)c(Cl)cc1N3` , is recorded IC50 strictly lower than 500 nM?
Completion: Fulfilled

Prompt: Given `COc1cc2ncnc3c2cc1OCCCCCCOc1cccc(Cl)c1N3` , is recorded IC50 strictly lower than 500 nM?
Completion: Fulfilled

Prompt: Given `COc1cc2ncnc3c2cc1OCCOCCOCCOc1cc(F)c(Cl)cc1N3` , is recorded IC50 strictly lower than 500 nM?
Completion: Fulfilled

Prompt: Given `COc1cc2ncnc3c2cc1OCCCCCCOc1cc(Cl)ccc1N3` , is recorded IC50 strictly lower than 500 nM?
Completion: Not fulfilled

Prompt: Given `COc1cc2ncnc(Nc3cc(Cl)c(F)cc3O)c2cc1O` , is recorded IC50 strictly lower than 500 nM?
Completion: Fulfilled

---

- measurement protocol: Solubility in 10% DMSO after 24 hrs by HPLC analysis
- Type: physicochemical
metric name: solubility at 24 h (µg/mL)
Give the number; µg/mL is assumed, so skip it.

Prompt: Data request, read-out solubility at 24 h, for `COc1cc2ncnc3c2cc1OCCOCCOc1cc(F)c(Cl)cc1N3`
Completion: 0.283

---

Each entry below lists one item and its recorded pIC50 value.
- System: BaF3
- measurement protocol: cells
- Format: functional, cell-based
- condition notes: Mus musculus, BaF3, 72 h
Please report pIC50 as the negative decimal logarithm of the molar concentration, giving only the number.

{"compound": "C=CC(=O)Nc1cc(Nc2ncc(C(=O)OC(C)C)c(-c3cn(C)c4ccccc34)n2)c(OC)cc1N(C)CCN(C)C [MOBOCERTINIB]", "measured value": 8.00}

Prompt: Data request, read-out pIC50, for `COc1cc2ncnc(Nc3cc(Cl)c(F)cc3O)c2cc1O`
Completion: 5.29

---

- study system: Epidermal growth factor receptor (Homo sapiens, UniProt P00533, L858R)
pIC50: −log10 of the molar value.
Entries get a class label from measured pIC50. See ranges: band 1 = under 6, band 2 = from 6 up to 7, band 3 = 7 and over

Answered cases to consult:
{"smiles representation": "COc1cc2ncnc3c2cc1OCCCCCCOc1c(Cl)cccc1N3", "class name": "band 1"}
{"smiles representation": "COc1cc2ncnc3c2cc1OCCOCCOCCOc1cccc(Cl)c1N3", "class name": "band 3"}
{"smiles representation": "COc1cc2ncnc3c2cc1OCCOCCOCCOc1cc(F)c(Cl)cc1N3", "class name": "band 3"}
{"smiles representation": "COc1cc2ncnc3c2cc1OCCCCCCOc1cccc(Cl)c1N3", "class name": "band 2"}

Next compound, please.
Prompt: # bin label for `COc1cc2ncnc3c2cc1OCCOCCOc1ccc(Cl)c(c1)N3`
Completion: band 1

---

System: Epidermal growth factor receptor (Homo sapiens, UniProt P00533, EX19DEL) | Read-out: IC50
Give the number; nM is assumed, so skip it.

{"smiles representation": "COc1cc2ncnc3c2cc1OCCCCCCOc1ccccc1N3", "study system": "Epidermal growth factor receptor (Homo sapiens, UniProt P00533, EX19DEL)", "quantity unit": "nM", "IC50": 491}

Prompt: Data request, read-out IC50, for `COc1cc2ncnc3c2cc1OCCOCCOc1cc(ccc1Cl)N3`
Completion: 493

---

- study system: Epidermal growth factor receptor (Homo sapiens, UniProt P00533, L858R)
metric name: pIC50
Please report pIC50 as the negative decimal logarithm of the molar concentration, giving only the number.

Solved cases (3 shown):
{"smiles representation": "COc1cc2ncnc3c2cc1OCCOCCOc1cc(ccc1Cl)N3", "pIC50": 5.95}
{"smiles representation": "COc1cc2ncnc3c2cc1OCCOCCOc1ccccc1N3", "pIC50": 6.16}
{"smiles representation": "COc1cc2ncnc3c2cc1OCCOCCOc1ccc(Cl)cc1N3", "pIC50": 6.89}

Prompt: Data request, read-out pIC50, for `COc1cc2ncnc3c2cc1OCCOCCOCCOc1ccccc1N3`
Completion: 7.06

Prompt: Data request, read-out pIC50, for `COc1cc2ncnc3c2cc1OCCCCCCOc1cc(F)c(Cl)cc1N3`
Completion: 6.18

Prompt: Data request, read-out pIC50, for `COc1cc2ncnc3c2cc1OCCCCCCOc1ccc(Cl)cc1N3`
Completion: 6.13

---

System: Epidermal growth factor receptor (Homo sapiens, UniProt P00533, EX19DEL) | Read-out: pIC50
Please report pIC50 as the negative decimal logarithm of the molar concentration, giving only the number.

Solved cases (2 shown):
{"smiles representation": "Fc1cc2c(cc1Cl)Nc1ncnc3ccc(cc13)OCCOCCO2", "pIC50": 5.99}
{"smiles representation": "COc1cc2ncnc3c2cc1OCCOCCOc1c(Cl)cccc1N3", "pIC50": 6.29}

Prompt: Data request, read-out pIC50, for `COc1cc2ncnc3c2cc1OCCOCCOCCOc1ccccc1N3`
Completion: 5.73

Prompt: Data request, read-out pIC50, for `COc1cc2ncnc3c2cc1OCCOCCOCCOc1ccc(Cl)cc1N3`
Completion: 9.52

Prompt: Data request, read-out pIC50, for `COc1cc2ncnc3c2cc1OCCCCCCOc1c(Cl)cccc1N3`
Completion: 5.52

Prompt: Data request, read-out pIC50, for `COc1cc2ncnc3c2cc1OCCOCCOc1ccc(Cl)c(c1)N3`
Completion: 4.15

Prompt: Data request, read-out pIC50, for `COc1cc2ncnc3c2cc1OCCOCCOCCOc1cc(Cl)ccc1N3`
Completion: 7.79
